System: U2OS
protocol.text: Incucyte cell viability with U2OS; further: filed as whole numbers so only -1 and 0 and 1 occur
Format: toxicity, cell-based
condition.set: human, 12 h, 10 µM, compound concentration 10 uM, replicate number 1, timepoint 12 hours
Parameter Growth Rate: see the listing below.
Answer with a bare number; do not write a unit.

Below are worked cases with known answers.
O=C(NCc1ccccc1)c1ccc(S(=O)(=O)NCc2ccccc2)cc1
1
Cc1cc(C)cc(-c2cnc3cc(Cl)c(-c4cccc(O)c4)cc3c2OCCCN)c1
0
Cc1c(OCc2cccc(-c3ccc(C(=O)O)cc3)c2)cc2c(c1C)C(=O)C(C1CCCC1)C2 (stereo unspecified)
1
C[C@H](Cc1cc2c(c(C(N)=O)c1)N(CCCO)CC2)NCCOc1ccccc1OCC(F)(F)F
1

Sure, the documented Growth Rate for CN([C@@H]1CCc2c(CC(=O)O)c3cc(S(C)(=O)=O)ccc3n2C1)S(=O)(=O)c1ccc(F)cc1 [CRTH2-negative-control] is 1

Sure, the documented Growth Rate for O=C(O)c1ccc(-c2coc3ncc(-c4ccccc4)cc23)cc1Cl is 1

====

Test system: U2OS
protocol.text: Multiplex assay against U2OS
Type: toxicity, cell-based
condition.set: human, 24 h, 10 µM, compound concentration 10 uM, replicate 2
Use Population Tubulin-Different-Phenotype (%) to assign classes; range list: class A = under 20%, class B = from 20% up to 80%, class C = 80% and over

Known results for compounds:
COc1ncc(-c2ccc3nccc(-c4ccnnc4)c3c2)cc1NS(=O)(=O)c1ccc(F)cc1F
class B
Cc1c(-c2ccc(O)cc2)n(Cc2ccc(OCCN3CCCCCC3)cc2)c2ccc(O)cc12
class C
CN(C)CC#Cc1ccc(OCCCc2sc(N3CCc4cccc(C(=O)Nc5nc6ccccc6s5)c4C3)nc2C(=O)O)c(F)c1
class B
CC(C)NCC(O)COc1ccc(CCOCC2CC2)cc1.Cl (stereo unspecified) [BETAXOLOL HYDROCHLORIDE]
class B

Q: State the class of the compound shown: CN(C)C(=O)N[C@H]1CC[C@H](CCN2CCN(c3cccc(Cl)c3Cl)CC2)CC1.Cl [CARIPRAZINE HYDROCHLORIDE]
Result: class C

Q: State the class of the compound shown: C=CC(=O)Nc1cccc(C(=O)Nc2ccc(Nc3cc(-c4[nH]c(SC)nc4C)ccn3)cc2)c1
Result: class A

Q: State the class of the compound shown: COc1cccc([C@@H](C)NCCCc2ccccc2Cl)c1.Cl [TECALCET HYDROCHLORIDE]
Result: class C

Q: State the class of the compound shown: CN1CCN(CCOc2cc(OC3CCOCC3)c3c(Nc4c(Cl)ccc5c4OCO5)ncnc3c2)CC1
Result: class C

Q: State the class of the compound shown: CN1CCC[C@@H]1CCO[C@](C)(c1ccccc1)c1ccc(Cl)cc1.O=C(O)/C=C/C(=O)O [CLEMASTINE FUMARATE]
Result: class B

Q: State the class of the compound shown: CC[C@H](C)C(=O)O[C@H]1C[C@@H](C)C=C2C=C[C@H](C)[C@H](CC[C@@H]3C[C@@H](O)CC(=O)O3)[C@H]21
Result: class B

Q: State the class of the compound shown: CN(C)C(=O)/C(C#N)=C/c1ccc(-c2nc3cnc4[nH]ccc4c3n2C2CCCCC2)o1
Result: class B

Q: State the class of the compound shown: O=C1NCN(c2ccccc2)C12CCN(CCCOc1ccc(F)cc1)CC2 [SPIRAMIDE]
Result: class A

====

Parameter Population Mitochondria Different-Phenotype (%): see the listing below.
Tested on: U2OS
protocol.text: Multiplex assay against U2OS
Type: toxicity, cell-based
condition.set: human, 12 h, 10 µM, compound concentration 10 uM, replicate 2
State just the number; it will be interpreted in %.

C=CC(=O)Nc1cc2c(Nc3ccc(F)c(Cl)c3)ncnc2cc1OCCCN1CCOCC1.Cl.Cl [CANERTINIB DIHYDROCHLORIDE]
22
Cc1[nH]c(/C=C2\C(=O)Nc3ccc(S(=O)(=O)N(C)c4cccc(Cl)c4)cc32)c(C)c1C(=O)N1CCN(C)CC1
97
CN1CCN(CCOc2cc(OC3CCOCC3)c3c(Nc4c(Cl)ccc5c4OCO5)ncnc3c2)CC1
100

Sure, the documented Population Mitochondria Different-Phenotype (%) for Cc1nc(-c2ccc(-c3ccc(C(=O)N4CCc5cc6c(cc54)C4(CCN(C)CC4)CO6)cc3)c(C)c2)no1 is 100

Sure, the documented Population Mitochondria Different-Phenotype (%) for CN(C)C(=O)N[C@H]1CC[C@H](CCN2CCN(c3cccc(Cl)c3Cl)CC2)CC1.Cl [CARIPRAZINE HYDROCHLORIDE] is 95

Sure, the documented Population Mitochondria Different-Phenotype (%) for Cc1c(-c2ccc(O)cc2)n(Cc2ccc(OCCN3CCCCCC3)cc2)c2ccc(O)cc12 is 100

Sure, the documented Population Mitochondria Different-Phenotype (%) for CNc1nc(NCc2ccc(NS(C)(=O)=O)cc2Cl)cc(-c2ccccn2)n1 is 32

Sure, the documented Population Mitochondria Different-Phenotype (%) for CC(C)NCC(O)COc1ccc(CCOCC2CC2)cc1.Cl (stereo not drawn) [BETAXOLOL HYDROCHLORIDE] is 72

====

System: Fibroblast
protocol.text: Multiplex assay against human fibroblast
Type: toxicity, cell-based
condition.set: 12 h, 10 µM, compound concentration 10 uM, replicate 1
test.readout: Population Mitotic Cells (%)
State just the number; it will be interpreted in %.

Below are worked cases with known answers.
CN1CCC[C@@H]1CCO[C@](C)(c1ccccc1)c1ccc(Cl)cc1.O=C(O)/C=C/C(=O)O [CLEMASTINE FUMARATE]
30
CN(C)C(=O)/C(C#N)=C/c1ccc(-c2nc3cnc4[nH]ccc4c3n2C2CCCCC2)o1
48
C=CC(=O)Nc1cccc(C(=O)Nc2ccc(Nc3cc(-c4[nH]c(SC)nc4C)ccn3)cc2)c1
50
Cc1nc(Nc2n[nH]c3c2CN(C(=O)N[C@H](CN(C)C)c2ccccc2)C3(C)C)c2sccc2n1
37
Cc1csc2c(N[C@@H](C)CN3CCN(S(=O)(=O)c4ccc(Cl)c(Cl)c4)CC3)ncnc12
47
CN(C)CC#Cc1ccc(OCCCc2sc(N3CCc4cccc(C(=O)Nc5nc6ccccc6s5)c4C3)nc2C(=O)O)c(F)c1
36
COc1cc2nccc(Oc3ccc(NC(=O)Nc4cc(C)on4)c(Cl)c3)c2cc1OC.O
52

Note: attention shifts to another entry.
Item COc1ncc(-c2ccc3nccc(-c4ccnnc4)c3c2)cc1NS(=O)(=O)c1ccc(F)cc1F was tested on Fibroblast; the reported Population Mitotic Cells (%) is 21

====

Parameter Population Tubulin-Different-Phenotype (%): see the listing below.
Tested on: Fibroblast
protocol.text: Multiplex assay against human fibroblast
Type: toxicity, cell-based
condition.set: 24 h, 10 µM, compound concentration 10 uM, replicate 2
State just the number; it will be interpreted in %.

O=C1NCN(c2ccccc2)C12CCN(CCCOc1ccc(F)cc1)CC2 [SPIRAMIDE]
10
COc1cccc([C@@H](C)NCCCc2ccccc2Cl)c1.Cl [TECALCET HYDROCHLORIDE]
92
Cc1c(-c2ccc(O)cc2)n(Cc2ccc(OCCN3CCCCCC3)cc2)c2ccc(O)cc12
100
Cn1cc(-c2[nH]c3cc(NC(=O)[C@H](N)C4CCCCC4)cc4c3c2C=NNC4=O)cn1
55

Sure, the documented Population Tubulin-Different-Phenotype (%) for COc1cc2nccc(Oc3ccc(NC(=O)Nc4cc(C)on4)c(Cl)c3)c2cc1OC.O is 97

Sure, the documented Population Tubulin-Different-Phenotype (%) for CN(C)CC#Cc1ccc(OCCCc2sc(N3CCc4cccc(C(=O)Nc5nc6ccccc6s5)c4C3)nc2C(=O)O)c(F)c1 is 21

Sure, the documented Population Tubulin-Different-Phenotype (%) for Cc1nc(-c2ccc(-c3ccc(C(=O)N4CCc5cc6c(cc54)C4(CCN(C)CC4)CO6)cc3)c(C)c2)no1 is 100

Sure, the documented Population Tubulin-Different-Phenotype (%) for OC1(c2ccc(Cl)cc2)CCN(Cc2c[nH]c3ccccc23)CC1 is 52

====

Test system: Fibroblast
protocol.text: Multiplex assay against human fibroblast
Type: toxicity, cell-based
condition.set: 12 h, 10 µM, compound concentration 10 uM, replicate 1
test.readout: Population Mitochondria Different-Phenotype (%)
State just the number; it will be interpreted in %.

Below are worked cases with known answers.
Cc1c(-c2ccc(O)cc2)n(Cc2ccc(OCCN3CCCCCC3)cc2)c2ccc(O)cc12
35
COc1cc(-n2cnc3cc(-c4ccc(Cl)cc4)sc3c2=O)ccc1OCCN1CCCC1
53

Sure, the documented Population Mitochondria Different-Phenotype (%) for Cn1c(-c2csc(C3CCN(CC4=NC5N=CC=CC5N4)CC3)n2)nc2ccccc21 (stereo not drawn) is 4

====

Tested on: Fibroblast
protocol.text: Multiplex assay against human fibroblast
Format: toxicity, cell-based
condition.set: 12 h, 10 µM, compound concentration 10 uM, replicate 2
Parameter Population Mitochondria Different-Phenotype (%): see the listing below.
State just the number; it will be interpreted in %.

Below are worked cases with known answers.
Cc1cc(C)cc(-c2cnc3cc(Cl)c(-c4cccc(O)c4)cc3c2OCCCN)c1
95
Cc1nc(-c2ccc(-c3ccc(C(=O)N4CCc5cc6c(cc54)C4(CCN(C)CC4)CO6)cc3)c(C)c2)no1 [SB-224289]
100
CCN(CC)CCCCNc1ncc2cc(-c3cc(OC)cc(OC)c3)c(NC(=O)NC(C)(C)C)nc2n1 [PD-173074]
4
Cc1c(-c2ccc(O)cc2)n(Cc2ccc(OCCN3CCCCCC3)cc2)c2ccc(O)cc12 [BAZEDOXIFENE]
100
Cc1csc2c(N[C@@H](C)CN3CCN(S(=O)(=O)c4ccc(Cl)c(Cl)c4)CC3)ncnc12
98

Sure, the documented Population Mitochondria Different-Phenotype (%) for CC(C)(O)CNc1ncc(-c2ccnc(Nc3ccnc(Cl)c3)n2)c(CC2CC2)n1 is 96

Sure, the documented Population Mitochondria Different-Phenotype (%) for Cc1nc(Nc2n[nH]c3c2CN(C(=O)N[C@H](CN(C)C)c2ccccc2)C3(C)C)c2sccc2n1 [PF-03758309] is 20

Sure, the documented Population Mitochondria Different-Phenotype (%) for CN1CCC[C@@H]1CCO[C@](C)(c1ccccc1)c1ccc(Cl)cc1.O=C(O)/C=C/C(=O)O [CLEMASTINE FUMARATE] is 86

Measured values drawn from ChEMBL document CHEMBL4689842 for this set.
